parameter: N2 permeability
Entry format: amount then unit.

Observe how each entry below is paired with its result.
>>> observed("*CC(O)C* (repeat unit)")
"0.015 Barrer"
>>> observed("*Oc1ccc(S(=O)(=O)c2ccc(Oc3c(C)cc(-c4cc(C)c(*)c(C)c4C)c(C)c3C)cc2)cc1 (repeat unit)")
"1.2 Barrer"
>>> observed("*c1ccc(Cc2ccc(N3C(=O)c4ccc(Oc5ccc6c(c5)C(=O)N(*)C6=O)cc4C3=O)cc2)cc1 (repeat unit)")
"0.028 Barrer"
>>> observed("*C(C)=C(*)CCC (repeat unit)")
"12 Barrer"
>>> observed("*c1ccc(Cc2ccc(N3C(=O)c4ccc(C(c5ccc6c(c5)C(=O)N(*)C6=O)(C(F)(F)F)C(F)(F)F)cc4C3=O)c(Cl)c2)cc1Cl (repeat unit)")
"0.269 Barrer"
>>> observed("*/C(C)=C(/*)[Si](C)(C)C(C)C (repeat unit)")
"170 Barrer"
>>> observed("*c1cc2c(cc1C)-c1cc(C)c(N3C(=O)c4ccc(-c5ccc6c(c5)C(=O)N(*)C6=O)cc4C3=O)cc1S2(=O)=O (repeat unit)")
"0.0763 Barrer"
>>> observed("*CC(*)[Si](C)(C)c1ccccc1 (repeat unit)")
"0.45 Barrer"
>>> observed("*Oc1ccc(-c2c(-c3ccc(C#N)cc3)c(-c3ccc(C#N)cc3)c(-c3ccc4c(c3)Oc3c(C#N)c(*)c(*)c(C#N)c3O4)c(-c3ccc(C#N)cc3)c2-c2ccc(C#N)cc2)cc1O* (repeat unit)")
"52 Barrer"
>>> observed("*c1c(C)cc(Cc2cc(C)c(N3C(=O)c4ccc(C(c5ccc6c(c5)C(=O)N(*)C6=O)(C(F)(F)F)C(F)(F)F)cc4C3=O)c(C)c2)cc1C (repeat unit)")
"2.13 Barrer"

query: Data request, read-out N2 permeability, for *Oc1ccc2c(c1)-c1nc3cc(Oc4ccc5nc6n(c5c4)C(=O)c4cc(*)ccc4-6)ccc3n1C2=O (repeat unit)
result: 0.026 Barrer

query: Data request, read-out N2 permeability, for *c1ccc(N2C(=O)c3ccc(C(=O)Oc4ccc(C(c5ccc(OC(=O)c6ccc7c(c6)C(=O)N(*)C7=O)cc5)(C(F)(F)F)C(F)(F)F)cc4)cc3C2=O)cc1 (repeat unit)
result: 0.0355 Barrer

query: Data request, read-out N2 permeability, for *Oc1ccc(S(=O)(=O)c2ccc(Oc3c(C)cc(Cc4cc(C)c(*)c(C)c4)cc3C)cc2)cc1 (repeat unit)
result: 0.611 Barrer

query: Data request, read-out N2 permeability, for *c1ccc2c(-c3c(O)ccc4cc(N5C(=O)c6ccc(Oc7ccc8c(c7)C(=O)N(*)C8=O)cc6C5=O)ccc34)c(O)ccc2c1 (repeat unit)
result: 0.05 Barrer

query: Data request, read-out N2 permeability, for *c1ccc2c(c1)C(=O)n1c-2nc2ccc(-c3ccc4c(c3)nc3n4C(=O)c4ccc(C(*)(C(F)(F)F)C(F)(F)F)cc4-3)cc21 (repeat unit)
result: 1.44 Barrer

query: Data request, read-out N2 permeability, for *c1ccc(Oc2ccc(C(c3ccc(Oc4ccc(N5C(=O)c6ccc(-c7ccc8c(c7)C(=O)N(*)C8=O)cc6C5=O)cc4C(F)(F)F)cc3)(C(F)(F)F)C(F)(F)F)cc2)c(C(F)(F)F)c1 (repeat unit)
result: 0.563 Barrer

query: Data request, read-out N2 permeability, for *=CC1CC(C=*)C2C1C([Si](O[Si](C)(C)C)(O[Si](C)(C)C)O[Si](C)(C)C)C2[Si](O[Si](C)(C)C)(O[Si](C)(C)C)O[Si](C)(C)C (repeat unit)
result: 100 Barrer

query: Data request, read-out N2 permeability, for *c1ccc(-c2ccc(C(*)(c3ccccc3)C(F)(F)F)cc2)cc1 (repeat unit)
result: 6.6 Barrer

query: Data request, read-out N2 permeability, for *c1ccc(Oc2ccc(-c3ccc(-c4ccc(Oc5ccc(N6C(=O)c7ccc(C(c8ccc9c(c8)C(=O)N(*)C9=O)(C(F)(F)F)C(F)(F)F)cc7C6=O)cc5)c(C(F)(F)F)c4)s3)cc2C(F)(F)F)cc1 (repeat unit)
result: 1.78 Barrer

query: Data request, read-out N2 permeability, for *Oc1c(C)cc(*)c(C(=O)c2ccc(Br)cc2)c1C (repeat unit)
result: 2.13 Barrer

query: Data request, read-out N2 permeability, for *CC(*)OCC1CCCCC1 (repeat unit)
result: 0.4 Barrer

query: Data request, read-out N2 permeability, for *Cc1ccc(C*)c(CC)c1 (repeat unit)
result: 0.0904 Barrer
